Assay: Plasma pharmacokinetics of sorafenib and sorafenib N-oxide in rats (HPLC-UV)
Details: male, Wistar, rat, plasma, po, 100 mg/kg, AUC0-∞, rat plasma; single oral sorafenib 100 mg/kg + metformin 100 mg/kg b.w. (IISOR+MET group)
assay endpoint: AUC(0-inf) (µg·h/mL)
Express it in µg·h/mL; write the number only.

**Q:** Identify the reported AUC(0-inf) for the following entry. CNC(=O)c1cc(Oc2ccc(NC(=O)Nc3ccc(Cl)c(C(F)(F)F)c3)cc2)ccn1 [Sorafenib, sorafenib]
**A:** 36.8

---

Experiment: Plasma pharmacokinetics of sorafenib and sorafenib N-oxide in rats (HPLC-UV);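 also: pharmacokinetic parameters were computed with Phoenix WinNonlin 8.0 software from the plasma concentration–time curve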
Settings: male, Wistar, rat, plasma, po, 100 mg/kg, AUC0-t, rat plasma; single oral sorafenib 100 mg/kg + metformin 100 mg/kg b.w. (IISOR+MET group)
assay endpoint: AUC0-t (ng·h/mL)
Express it in ng·h/mL; write the number only.

**Q:** Identify the reported AUC0-t for the following entry. CNC(=O)c1cc(Oc2ccc(NC(=O)Nc3ccc(Cl)c(C(F)(F)F)c3)cc2)ccn1
**A:** 35200
